# Test system: biotinyl-Phe-oxazolone
# runDescription: self-aminoacylation, catalytic enhancement (BFO) (fold over background); higher = more active; k-Seq, kA / k0A0; sequences stand for … in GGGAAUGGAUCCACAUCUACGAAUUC…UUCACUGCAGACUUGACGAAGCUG
Variants at the floor of the assay were thinned out.
Parameter threshold = 4. Response is class 1 when self-aminoacylation meets or exceeds it, else class 0.

>>> category("AAGUGUGCCAAUAGUCGCAAG [Fam3.1 aminoacylation ribozyme variant]")
"class 0"

Determine whether measured self-aminoacylation meets or exceeds 4 for AAGUUUGGGAAUAGUCGCAAG [Fam3.1 aminoacylation ribozyme variant] class 0

Determine whether measured self-aminoacylation meets or exceeds 4 for AAGUUUGGUAAUAGGCGCAAG [Fam3.1 aminoacylation ribozyme variant] class 0

----------
# Tested on: biotinyl-Phe-oxazolone
# runDescription: self-aminoacylation, catalytic enhancement (BFO) (fold over background); higher = more active; k-Seq, kA / k0A0; sequences stand for … in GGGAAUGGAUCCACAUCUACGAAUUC…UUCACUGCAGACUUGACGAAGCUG
Variants at the floor of the assay were thinned out.
propertyLabel: self-aminoacylation
One number for each entry.

>>> val("CUACCUCAAAUAAUCGGUCUG [Fam1A.1 aminoacylation ribozyme variant]")
1.1
>>> val("AUUACCCUGCUCAUAGAGUGA [Fam2.1 aminoacylation ribozyme variant]")
57.5
>>> val("AUUCAGCUAGGUCAUCGGGCG [Fam2.2 aminoacylation ribozyme variant]")
17.5
>>> val("CCACACAGCAAGCAAUCGGUC [Fam1B.1 aminoacylation ribozyme variant]")
1.35

Then this sequence:
Recorded self-aminoacylation for AAGUUUUCUAAUAGUCGGAAG [Fam3.1 aminoacylation ribozyme variant] , please? 1.99

----------
# Tested on: biotinyl-Ile-oxazolone
# runDescription: self-aminoacylation, catalytic enhancement (BIO) (fold over background); higher = more active; k-Seq, kA / k0A0; sequences stand for … in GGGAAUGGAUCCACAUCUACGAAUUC…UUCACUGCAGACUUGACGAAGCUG
Fewer inactive variants are shown than the library holds.
propertyLabel: self-aminoacylation

>>> val("AAUCACAUAGGUCAUCGGGUG [Fam2.2 aminoacylation ribozyme variant]")
4.88
>>> val("CAACAAUUCAAGCAAUCGGUC [Fam1B.1 aminoacylation ribozyme variant]")
1.16
>>> val("CCGCACUUCAGGCAAUCGGUC [Fam1B.1 aminoacylation ribozyme variant]")
1.76
>>> val("UUACAUCAAACAAUCGGUCUG [Fam1A.1 aminoacylation ribozyme variant]")
1.12
>>> val("AUUACCCUGGUCGUCGAGUAA [Fam2.1 aminoacylation ribozyme variant]")
1.27

Need self-aminoacylation for each of these sequences.
1. AUUGUCCUGGUCAUCGAGUGA [Fam2.1 aminoacylation ribozyme variant]
2. CUUACCCUGGUCAUCGAGUUA [Fam2.1 aminoacylation ribozyme variant]
3. ACGUUUCCUAAUAGUCGCAAG [Fam3.1 aminoacylation ribozyme variant]
4. CUUCUUCAAACAAUCCGUCUG [Fam1A.1 aminoacylation ribozyme variant]
5. AUGCACCUGGGUCAUCGGGUG [Fam2.2 aminoacylation ribozyme variant]
6. CUGCAUCAAACAAUCGGUCUG [Fam1A.1 aminoacylation ribozyme variant]
7. AUUCACAUAGGUCAGCGGGUG [Fam2.2 aminoacylation ribozyme variant]

[4.78, 1.53, 1.61, 0.85, 3.37, 1.08, 3.26]

Need self-aminoacylation for each of these sequences.
1. AAUCACCUAGGUCUUCGGGUG [Fam2.2 aminoacylation ribozyme variant]
2. CCACACUUCCAGCAAUCGGAC [Fam1B.1 aminoacylation ribozyme variant]
3. AUGAUUGCUAAUAGUCGCAAG [Fam3.1 aminoacylation ribozyme variant]
4. AGUCCCCUGGUCAUCGAGUGA [Fam2.1 aminoacylation ribozyme variant]
5. AUUUACCUAGGACAUCGGGUG [Fam2.2 aminoacylation ribozyme variant]
6. CCACACUUCAAGCACCCGGUC [Fam1B.1 aminoacylation ribozyme variant]

1. 3.79
2. 0.999
3. 1.34
4. 3.3
5. 2.26
6. 1.55
